# credit: ChEMBL document CHEMBL4616632

Protocol text: Oral bioavailability in rat at 300 mg/kg administered via gavage by HPLC/MS analysis
Format: ADME, organism-based
Condition: in vivo
Endpoint name: bioavailability (%)
Report the value in % with no unit label.

Request: Name the recorded bioavailability for O=C(O)c1c(F)ccc2c1OB(O)[C@@H]1C[C@H]21 [XERUBORBACTAM] .
Result: 28

====

Quick list: MEC per entry.
Tested on: Klebsiella pneumoniae
Protocol text: Inhibition of Klebsiella pneumoniae KP1081 NDM-1 assessed as minimum concentration of compound required to reduce the MIC of biapenem to 1 ug/ml
Report the value in µg/mL with no unit label.

O=C(O)c1c(F)ccc2c1OB(O)CC2 : 0.6
COc1ccc2c(c1C(=O)O)OB(O)C1C2C1(F)F (configuration not stated) : 2.5

Request: Hello, I am looking for reported MEC with Klebsiella pneumoniae for "O=C(O)c1nccc2c1OB(O)[C@@H]1C[C@H]21" . Could you help?
Result: 2.5

Request: Hello, I am looking for reported MEC with Klebsiella pneumoniae for "C[C@H]1Cc2cccc(C(=O)O)c2OB1O" . Could you help?
Result: 1.25

Request: Hello, I am looking for reported MEC with Klebsiella pneumoniae for "Nc1nnc(S[C@H]2Cc3ccc(OCC(F)F)c(C(=O)O)c3OB2O)s1" . Could you help?
Result: 1.25

Request: Hello, I am looking for reported MEC with Klebsiella pneumoniae for COc1ccc2c(c1C(=O)O)OB(O)C1CCC21 (configuration not stated) . Could you help?
Result: 10

Request: Hello, I am looking for reported MEC with Klebsiella pneumoniae for "O=C(O)c1cccc2c1OB(O)[C@@H](Sc1cccnc1)C2" . Could you help?
Result: 2.5

Request: Hello, I am looking for reported MEC with Klebsiella pneumoniae for "O=C(O)c1cccc2c1OB(O)[C@@H](Sc1nccs1)C2" . Could you help?
Result: 0.3

Request: Hello, I am looking for reported MEC with Klebsiella pneumoniae for "COc1ccc2c(c1C(=O)O)OB(O)[C@@H](Sc1nncs1)C2" . Could you help?
Result: 0.3
